Below, each entry is listed alongside its reported pIC50.
- target-entity: recombinant human His-ATG7 enzyme (Homo sapiens (Human))
- Sequence (O95352 whole entry): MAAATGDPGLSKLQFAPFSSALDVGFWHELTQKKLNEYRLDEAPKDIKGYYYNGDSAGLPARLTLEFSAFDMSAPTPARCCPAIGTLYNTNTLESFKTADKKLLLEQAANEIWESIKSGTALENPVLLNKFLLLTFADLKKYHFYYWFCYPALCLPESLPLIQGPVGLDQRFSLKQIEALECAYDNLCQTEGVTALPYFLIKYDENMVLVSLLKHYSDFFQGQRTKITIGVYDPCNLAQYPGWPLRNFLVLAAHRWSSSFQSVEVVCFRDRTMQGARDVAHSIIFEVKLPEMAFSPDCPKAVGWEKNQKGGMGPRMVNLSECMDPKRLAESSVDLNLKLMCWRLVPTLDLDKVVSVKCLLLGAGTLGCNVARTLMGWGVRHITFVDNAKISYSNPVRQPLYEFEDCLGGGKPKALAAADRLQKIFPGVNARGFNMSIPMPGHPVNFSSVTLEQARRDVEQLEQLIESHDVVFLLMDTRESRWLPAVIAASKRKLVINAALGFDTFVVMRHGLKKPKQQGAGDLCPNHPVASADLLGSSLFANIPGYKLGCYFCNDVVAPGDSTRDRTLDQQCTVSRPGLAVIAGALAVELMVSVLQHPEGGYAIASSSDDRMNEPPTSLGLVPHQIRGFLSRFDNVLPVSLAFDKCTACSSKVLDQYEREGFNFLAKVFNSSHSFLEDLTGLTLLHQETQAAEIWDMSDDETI
- procedure-details: ATG7 Enzyme Assay (HTRF/FRET, ATG3-GST and Flag-Gabarap)
pIC50: −log10 of the molar value.

Consider the worked cases shown below.
CCSc1nn([C@H]2C[C@H](O)[C@@H](COS(N)(=O)=O)O2)c2ncnc(N)c12 [Compound I-172]: 7.00 to 7.30
CN(C)C(=O)CSc1nn([C@H]2C[C@H](O)[C@@H](COS(N)(=O)=O)O2)c2ncnc(N)c12 [Compound I-180]: 6.30 to 7.00
N#Cc1nn([C@@H]2O[C@H](COS(N)(=O)=O)[C@@H](O)[C@H]2O)c2ncnc(N)c12 [Compound I-13]: 7.30 to 7.70

Entry Nc1ncnc2c1c(SCc1ccccn1)nn2[C@@H]1O[C@H](COS(N)(=O)=O)[C@@H](O)[C@@H]1F [Compound I-119] — recorded pIC50 = 7.00 to 7.30

Entry Nc1ncnc2c1c(SCc1cccnc1)nn2[C@@H]1O[C@H](COS(N)(=O)=O)[C@@H](O)[C@@H]1F [Compound I-121] — recorded pIC50 = 7.00 to 7.30

Entry Cc1ccccc1Sc1nn([C@H]2C[C@H](O)[C@@H](COS(N)(=O)=O)O2)c2ncnc(N)c12 [Compound I-176] — recorded pIC50 = 6.30 to 7.00

Entry Nc1ncnc2c1c(OC(F)F)nn2[C@@H]1O[C@H](COS(N)(=O)=O)[C@@H](O)[C@@H]1F [Compound I-99] — recorded pIC50 = 7.30 to 7.70
